Assay: Single dose PK in healthy subjects (Cohorts 1, 2, S1 and S2), plasma
Format: in vivo, human
Conditions: human, plasma, intravenous, 134.4 mg; 6 hr; read-out: Plasma concentration, Mean

{"smilesInput": "COC(=O)N1CCC[C@H](NS(C)(=O)=O)[C@@H]1CO[C@H]1CC[C@@H](c2ccccc2)CC1", "concentration at 6 h / ng/mL": 248}

---

Assay: Single dose PK in patients with narcolepsy (Cohorts 5, 6 and 7), plasma
Format: in vivo, human
Settings: human, plasma, intravenous, 5 mg, Cmpd A 5 mg; Median; Cohort 5, 6, 7; read-out: CL (converted)

{"smilesInput": "COC(=O)N1CCC[C@H](NS(C)(=O)=O)[C@@H]1CO[C@H]1CC[C@@H](c2ccccc2)CC1", "clearance": "915 mL/min"}

---

Test: Single dose PK in healthy subjects (Cohorts 1, 2, S1 and S2), plasma
Type: in vivo, human
Conditions: human, plasma, iv, 7 mg, 7 mg single IV infusion, healthy subjects; read-out: Vss Mean

{"smilesInput": "COC(=O)N1CCC[C@H](NS(C)(=O)=O)[C@@H]1CO[C@H]1CC[C@@H](c2ccccc2)CC1", "unitTag": "L", "Vd": 82.9}

---

Experiment: Single dose PK in healthy subjects (Cohorts 1, 2, S1 and S2), plasma
Type: in vivo, human
Conditions: human, plasma, iv, 14 mg, 14 mg single IV infusion, healthy subjects; read-out: Vz Mean

{"smilesInput": "COC(=O)N1CCC[C@H](NS(C)(=O)=O)[C@@H]1CO[C@H]1CC[C@@H](c2ccccc2)CC1", "Vd / L": 272}

---

Assay: Single dose PK in healthy subjects (Cohorts 1, 2, S1 and S2), plasma
Format: in vivo, human
Settings: human, plasma, intravenous, 14 mg; 8 hr; read-out: Plasma concentration, Q1
From the text: […]

{"smilesInput": "COC(=O)N1CCC[C@H](NS(C)(=O)=O)[C@@H]1CO[C@H]1CC[C@@H](c2ccccc2)CC1", "unitTag": "ng/mL", "concentration at 8 h": 24.6}

---

Assay: Single dose PK in healthy subjects (Cohorts 1, 2, S1 and S2), plasma
Format: in vivo, human
Conditions: human, plasma, intravenous, 7 mg; 0.75 hr After End of Infusion; read-out: Plasma concentration, Q1
experimentalEndpoint: concentration at 0.75 h after end of infusion (ng/mL)

{"smilesInput": "COC(=O)N1CCC[C@H](NS(C)(=O)=O)[C@@H]1CO[C@H]1CC[C@@H](c2ccccc2)CC1", "valueReported": 5.35}

---

Assay: Single dose PK in healthy subjects (Cohorts 1, 2, S1 and S2), plasma
Type: in vivo, human
Conditions: human, plasma, intravenous, 7 mg; 9 hr; read-out: Plasma concentration, Minimum
experimentalEndpoint: concentration at 9 h

{"smilesInput": "COC(=O)N1CCC[C@H](NS(C)(=O)=O)[C@@H]1CO[C@H]1CC[C@@H](c2ccccc2)CC1", "experimentalEndpoint": "concentration at 9 h", "valueReported": "10.2 ng/mL"}

---

Test: Single dose PK in healthy subjects (Cohorts 1, 2, S1 and S2), plasma
Format: in vivo, human
Settings: human, plasma, intravenous, 14 mg; 1.5 hr; read-out: Plasma concentration, Mean
experimentalEndpoint: concentration at 1.5 h (ng/mL)

{"smilesInput": "COC(=O)N1CCC[C@H](NS(C)(=O)=O)[C@@H]1CO[C@H]1CC[C@@H](c2ccccc2)CC1", "unitTag": "ng/mL", "valueReported": 30.4}
